B1: Caulobacter ParB omega fusion; a variant is named by its letters at X, in order, B8GW30 (parent)
chain: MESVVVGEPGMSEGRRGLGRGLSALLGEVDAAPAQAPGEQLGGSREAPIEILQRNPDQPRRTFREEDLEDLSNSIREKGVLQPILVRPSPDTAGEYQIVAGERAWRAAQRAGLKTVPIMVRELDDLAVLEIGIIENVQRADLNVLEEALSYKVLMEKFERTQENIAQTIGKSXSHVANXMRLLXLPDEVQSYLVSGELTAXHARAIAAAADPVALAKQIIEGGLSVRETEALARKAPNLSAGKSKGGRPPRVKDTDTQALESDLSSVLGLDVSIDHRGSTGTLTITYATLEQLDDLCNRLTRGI

- Variants of: B1
- EXPERIMENT_NOTES: one-hybrid fitness for binding parS DNA (scaled: cognate 1, non-cognate 0); higher = stronger binding
- EXPERIMENTAL_SETUP: with parS DNA site
Over roughly 81,000 sequences, “one-hybrid fitness for binding parS DNA” has its median near -0.17; the highest 2% begin near 0.51. Many of the other results were omitted from the sample, so the highest values are more common in it than they were.
Let's look at some variants and their measured one-hybrid fitness for binding parS DNA.
ASSAY_ENDPOINT: one-hybrid fitness for binding parS DNA

mutation_descriptor=RMDS qualifying_sign== recorded_measurement=1.02
mutation_descriptor=RKWN qualifying_sign== recorded_measurement=0.364
mutation_descriptor=RYWD qualifying_sign=≤ recorded_measurement=0.2
mutation_descriptor=RYCT qualifying_sign== recorded_measurement=0.852
mutation_descriptor=MWTR qualifying_sign=≤ recorded_measurement=0.2
mutation_descriptor=RMRS qualifying_sign== recorded_measurement=0.868
mutation_descriptor=YLQA qualifying_sign=≤ recorded_measurement=0.2
mutation_descriptor=RMNY qualifying_sign== recorded_measurement=0.529
mutation_descriptor=RKRN qualifying_sign== recorded_measurement=0.347
mutation_descriptor=RKSA qualifying_sign== recorded_measurement=0.717
mutation_descriptor=RKRS qualifying_sign== recorded_measurement=0.747
mutation_descriptor=DDHK qualifying_sign=≤ recorded_measurement=0.2
mutation_descriptor=LNHR qualifying_sign=≤ recorded_measurement=0.2
mutation_descriptor=PHDG qualifying_sign=≤ recorded_measurement=0.2
mutation_descriptor=RSDC qualifying_sign== recorded_measurement=0.773
mutation_descriptor=RYYF qualifying_sign== recorded_measurement=0.22
mutation_descriptor=RSRF qualifying_sign== recorded_measurement=0.281
mutation_descriptor=RMDD qualifying_sign=≤ recorded_measurement=0.2
mutation_descriptor=DTAQ qualifying_sign=≤ recorded_measurement=0.2
mutation_descriptor=RMDP qualifying_sign=≤ recorded_measurement=0.2
mutation_descriptor=RKRH qualifying_sign=≤ recorded_measurement=0.2
mutation_descriptor=RSDN qualifying_sign== recorded_measurement=0.313
